Reference source: patent US10538497B2

Biological target: IDO1 (Homo sapiens (Human))
Sequence (P14902 whole entry): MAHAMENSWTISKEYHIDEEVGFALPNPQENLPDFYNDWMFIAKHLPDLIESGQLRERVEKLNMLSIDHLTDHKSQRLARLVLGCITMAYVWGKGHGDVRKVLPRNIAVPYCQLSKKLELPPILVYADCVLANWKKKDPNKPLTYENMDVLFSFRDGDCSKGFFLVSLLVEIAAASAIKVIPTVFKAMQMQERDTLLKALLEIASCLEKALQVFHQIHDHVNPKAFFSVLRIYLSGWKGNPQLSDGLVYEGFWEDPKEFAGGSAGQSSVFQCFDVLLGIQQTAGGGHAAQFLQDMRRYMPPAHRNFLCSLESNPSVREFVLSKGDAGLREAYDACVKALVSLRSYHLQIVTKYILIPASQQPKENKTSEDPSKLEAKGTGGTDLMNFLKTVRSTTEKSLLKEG
Assay: IDO1 Enzyme Assay
Details: read-out: IDO1 Enzyme Assay, IC50; HIS-tagged recombinant IDO1, 40 nM
assayEndpoint: IC50 (nM)
// return numeric value only (unit: nM, not printed)

Below, each entry is followed by its recorded IC50 result.
1. O/N=C(\Nc1ccc(F)c(Br)c1)c1nonc1SCCN1CCOCC1 ... 57.5
2. CCCCNC(=O)NCCSc1nonc1C(=NO)Nc1ccc(F)c(Br)c1 ... 33.5
3. CN1C[C@H](CSc2nonc2/C(=N/O)Nc2ccc(F)c(Br)c2)NC1=O ... 44.2
4. CS(=O)(=O)NCCOc1nonc1/C(=N/O)Nc1ccc(F)c(Br)c1 ... 205
5. CC(C)OC(=O)[C@H](C)NP(=O)(CCSc1nonc1/C(=N/O)Nc1ccc(F)c(Br)c1)N[C@@H](C)C(=O)OC(C)C ... 132

**Q:** Looking for the measured IC50 of O=c1cc(C(F)(F)F)cc(CSc2nonc2/C(=N/O)Nc2ccc(F)c(Br)c2)[nH]1 , can you help?
**A:** 173

**Q:** Give its IC50 value. Item: N#Cc1cc(N/C(=N\O)c2nonc2SC[C@H](O)CO)ccc1F
**A:** 154

**Q:** IC50 for CC(=O)N1CCC(Sc2nonc2/C(=N/O)Nc2ccc(F)c(Br)c2)CC1 ?
**A:** 99.7

**Q:** # get_value(readout='IC50', item= CS(=O)(=O)NCCSc1nonc1/C(=N/O)Nc1ccc(F)c(Cl)c1 )
**A:** 50.9

**Q:** Reported IC50 for O=S1(=O)NC[C@H](CSc2nonc2/C(=N/O)Nc2ccc(F)c(Br)c2)N1 : what is it?
**A:** 53.5

====

Biological target: IDO1 (Homo sapiens (Human))
Test: IDO1 Enzyme Assay
Settings: read-out: IDO1 Enzyme Assay, IC50; HIS-tagged recombinant IDO1, 40 nM
assayEndpoint: pIC50
Interpret pIC50 as the negative base-10 log of the concentration measured in mol/L.

1. CC(Sc1nonc1/C(=N/O)Nc1ccc(F)c(Br)c1)C(=O)O (stereo not drawn) [Example 16] ... 6.83
2. N#Cc1cc(N/C(=N\O)c2nonc2SCCNC(=O)CO)ccc1F [Example 182] ... 6.87
3. CNS(=O)(=O)NC(=O)CSc1nonc1/C(=N/O)Nc1ccc(F)c(Br)c1 [Example 199] ... 7.24

**Q:** Request - read-out pIC50 | tested on IDO1 (Homo sapiens (Human)) | compound OCC(O)CSc1nonc1/C(=N/O)Nc1ccc(F)c(Br)c1 (stereo not drawn) [Example 17]
**A:** 7.46

**Q:** Give pIC50 (IDO1 (Homo sapiens (Human))) of the following compound: O/N=C(\Nc1ccc(F)c(Br)c1)c1nonc1SCC1CNC1 [Example 25]
**A:** 7.04

**Q:** Param readout = pIC50; param system = IDO1 (Homo sapiens (Human)); param query = CC(=O)NCCSc1nonc1/C(=N/O)Nc1ccc(F)c(OC(F)(F)F)c1 [Example 52] ; response: value
**A:** 6.45

**Q:** Give pIC50 (IDO1 (Homo sapiens (Human))) of the following compound: NC(=O)NCCSc1nonc1/C(=N/O)Nc1ccc(F)c(Br)c1 [Example 46]
**A:** 7.47

**Q:** pIC50 of O=c1[nH]nc(CCSc2nonc2/C(=N/O)Nc2ccc(F)c(Br)c2)o1 [Example 141] on IDO1 (Homo sapiens (Human))?
**A:** 7.14

**Q:** Quick check: pIC50 on IDO1 (Homo sapiens (Human)), item O=C(CSc1nonc1/C(=N/O)Nc1ccc(F)c(Br)c1)N[C@@H]1C[C@@H](O)[C@@H](O)C1 [Example 144] ?
**A:** 7.12
